Where these numbers come from: paper PMC6010027

- target_system: hCA I (Homo sapiens)
- Construct: recombinant; cytosolic isoform
- Sequence (P00915 2-261): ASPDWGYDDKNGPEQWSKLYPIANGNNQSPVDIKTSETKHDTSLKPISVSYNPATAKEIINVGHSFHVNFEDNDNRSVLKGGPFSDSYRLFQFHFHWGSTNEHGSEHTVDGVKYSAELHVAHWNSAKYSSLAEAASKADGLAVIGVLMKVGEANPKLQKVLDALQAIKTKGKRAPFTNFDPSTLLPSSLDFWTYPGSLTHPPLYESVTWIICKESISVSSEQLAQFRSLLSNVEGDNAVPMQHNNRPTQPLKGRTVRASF
- assay_info: stopped-flow CO2 hydrase assay
pKi: −log10 of the molar value.
Reported pKi by item:
quantity: pKi

1. Cc1ccc(N)c(-c2nnc(-c3ccc(S(N)(=O)=O)cc3)o2)c1; 6.57
2. Nc1ccc(OC(F)(F)F)cc1-c1nnc(-c2cccc(S(N)(=O)=O)c2)o1; 6.46
3. Nc1ccc(OC(F)(F)F)cc1-c1nnc(-c2ccc(S(N)(=O)=O)cc2)o1; 6.15
4. Cc1ccc(N)c(-c2nnc(-c3cccc(S(N)(=O)=O)c3)o2)c1; 5.23
5. Nc1c(Cl)cc(Cl)cc1-c1nnc(-c2ccc(S(N)(=O)=O)cc2)o1; 6.09
6. COc1ccc(N)c(-c2nnc(-c3cccc(S(N)(=O)=O)c3)o2)c1; 5.45
7. Nc1ccccc1-c1nnc(-c2ccc(S(N)(=O)=O)cc2)o1; 6.65
8. Nc1ccc(Cl)cc1-c1nnc(-c2ccc(S(N)(=O)=O)cc2)o1; 5.46
9. Cc1cc(C)c(N)c(-c2nnc(-c3ccc(S(N)(=O)=O)cc3)o2)c1; 7.05
10. Nc1c(F)cccc1-c1nnc(-c2cccc(S(N)(=O)=O)c2)o1; 6.14
11. Nc1c(F)cccc1-c1nnc(-c2ccc(S(N)(=O)=O)cc2)o1; 7.09
12. Nc1ccc(F)cc1-c1nnc(-c2cccc(S(N)(=O)=O)c2)o1; 6.13
13. COc1ccc(N)c(-c2nnc(-c3ccc(S(N)(=O)=O)cc3)o2)c1; 6.49
14. Nc1ccc(F)cc1-c1nnc(-c2ccc(S(N)(=O)=O)cc2)o1; 6.13
15. Nc1ccccc1-c1nnc(-c2cccc(S(N)(=O)=O)c2)o1; 5.48

----------
- target_system: hCA II (Homo sapiens, UniProt P00918)
- Construct: recombinant; cytosolic isoform
- assay_info: stopped-flow CO2 hydrase assay
quantity: log10 of Ki (log10 of the value in nM)

1. Nc1ccc(OC(F)(F)F)cc1-c1nnc(-c2ccc(S(N)(=O)=O)cc2)o1; 1.97
2. Cc1cc(C)c(N)c(-c2nnc(-c3ccc(S(N)(=O)=O)cc3)o2)c1; 1.25
3. Nc1ccccc1-c1nnc(-c2cccc(S(N)(=O)=O)c2)o1; 1.67
4. COc1ccc(N)c(-c2nnc(-c3cccc(S(N)(=O)=O)c3)o2)c1; 2.71
5. Nc1c(Cl)cc(Cl)cc1-c1nnc(-c2ccc(S(N)(=O)=O)cc2)o1; 1.67

----------
- target_system: hCA IV (Homo sapiens)
- Construct: recombinant; membrane-anchored isoform
- assay_info: stopped-flow CO2 hydrase assay
Reported Ki by item:
quantity: Ki

1) COc1ccc(N)c(-c2nnc(-c3ccc(S(N)(=O)=O)cc3)o2)c1 [8c]; 5.92 µM
2) Cc1cc(C)c(N)c(-c2nnc(-c3ccc(S(N)(=O)=O)cc3)o2)c1 [8h]; 7.59 µM
3) Nc1ccc(Cl)cc1-c1nnc(-c2ccc(S(N)(=O)=O)cc2)o1 [8e]; 8.24 µM
4) Nc1c(Cl)cc(Cl)cc1-c1nnc(-c2ccc(S(N)(=O)=O)cc2)o1 [8i]; 6.78 µM
5) Nc1ccc(OC(F)(F)F)cc1-c1nnc(-c2cccc(S(N)(=O)=O)c2)o1 [8n]; 9.43 µM

----------
- target_system: hCA IV (Homo sapiens, UniProt P22748)
- Construct: recombinant; membrane-anchored isoform
- Sequence (P22748 19-284): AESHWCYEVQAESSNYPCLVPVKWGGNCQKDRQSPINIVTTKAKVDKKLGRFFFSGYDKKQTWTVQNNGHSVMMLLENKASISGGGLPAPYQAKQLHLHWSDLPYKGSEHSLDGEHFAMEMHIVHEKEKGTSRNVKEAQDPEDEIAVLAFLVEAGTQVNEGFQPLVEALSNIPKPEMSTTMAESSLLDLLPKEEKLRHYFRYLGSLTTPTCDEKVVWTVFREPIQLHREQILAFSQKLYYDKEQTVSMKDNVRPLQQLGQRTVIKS
- assay_info: stopped-flow CO2 hydrase assay
pKi: −log10 of the molar value.
Please note: satisfied applies when pKi is 6 or greater, and not satisfied applies otherwise.

1. Nc1c(F)cccc1-c1nnc(-c2ccc(S(N)(=O)=O)cc2)o1; not satisfied
2. Nc1ccc(OC(F)(F)F)cc1-c1nnc(-c2ccc(S(N)(=O)=O)cc2)o1; not satisfied
3. Cc1ccc(N)c(-c2nnc(-c3cccc(S(N)(=O)=O)c3)o2)c1; satisfied
4. Nc1c(F)cccc1-c1nnc(-c2cccc(S(N)(=O)=O)c2)o1; satisfied
5. Nc1ccc(F)cc1-c1nnc(-c2cccc(S(N)(=O)=O)c2)o1; satisfied
6. Nc1ccccc1-c1nnc(-c2ccc(S(N)(=O)=O)cc2)o1; not satisfied
7. Nc1ccccc1-c1nnc(-c2cccc(S(N)(=O)=O)c2)o1; satisfied
8. COc1ccc(N)c(-c2nnc(-c3cccc(S(N)(=O)=O)c3)o2)c1; satisfied
9. Cc1ccc(N)c(-c2nnc(-c3ccc(S(N)(=O)=O)cc3)o2)c1; not satisfied
10. Nc1ccc(F)cc1-c1nnc(-c2ccc(S(N)(=O)=O)cc2)o1; not satisfied

----------
- target_system: hCA IX (Homo sapiens, UniProt Q16790)
- Construct: recombinant; transmembrane isoform
- assay_info: stopped-flow CO2 hydrase assay
Could you mark each record class 1 if its Ki falls strictly under 2 µM, and class 0 if it equals or exceeds it?

1) Nc1c(Cl)cc(Cl)cc1-c1nnc(-c2ccc(S(N)(=O)=O)cc2)o1 [8i]; class 0
2) Nc1ccc(F)cc1-c1nnc(-c2ccc(S(N)(=O)=O)cc2)o1 [8d]; class 1
3) Nc1ccccc1-c1nnc(-c2cccc(S(N)(=O)=O)c2)o1 [8j]; class 0
4) Cc1ccc(N)c(-c2nnc(-c3ccc(S(N)(=O)=O)cc3)o2)c1 [8b]; class 1
5) Nc1ccccc1-c1nnc(-c2ccc(S(N)(=O)=O)cc2)o1 [8a]; class 1
6) Nc1ccc(Cl)cc1-c1nnc(-c2ccc(S(N)(=O)=O)cc2)o1 [8e]; class 0
7) Nc1ccc(F)cc1-c1nnc(-c2cccc(S(N)(=O)=O)c2)o1 [8m]; class 0
8) COc1ccc(N)c(-c2nnc(-c3cccc(S(N)(=O)=O)c3)o2)c1 [8l]; class 0
9) Nc1ccc(OC(F)(F)F)cc1-c1nnc(-c2ccc(S(N)(=O)=O)cc2)o1 [8f]; class 0
10) COc1ccc(N)c(-c2nnc(-c3ccc(S(N)(=O)=O)cc3)o2)c1 [8c]; class 1
11) Nc1ccc(OC(F)(F)F)cc1-c1nnc(-c2cccc(S(N)(=O)=O)c2)o1 [8n]; class 1
12) Nc1c(F)cccc1-c1nnc(-c2cccc(S(N)(=O)=O)c2)o1 [8o]; class 1
13) Nc1c(F)cccc1-c1nnc(-c2ccc(S(N)(=O)=O)cc2)o1 [8g]; class 0
14) Cc1ccc(N)c(-c2nnc(-c3cccc(S(N)(=O)=O)c3)o2)c1 [8k]; class 0

----------
- target_system: hCA II (Homo sapiens, UniProt P00918)
- Construct: recombinant; cytosolic isoform
- assay_info: stopped-flow CO2 hydrase assay
pKi: −log10 of the molar value.
quantity: pKi

1. Nc1ccc(OC(F)(F)F)cc1-c1nnc(-c2cccc(S(N)(=O)=O)c2)o1 [8n]; 6.32
2. Nc1c(F)cccc1-c1nnc(-c2cccc(S(N)(=O)=O)c2)o1 [8o]; 7.06
3. Nc1c(F)cccc1-c1nnc(-c2ccc(S(N)(=O)=O)cc2)o1 [8g]; 8.19
4. Cc1ccc(N)c(-c2nnc(-c3cccc(S(N)(=O)=O)c3)o2)c1 [8k]; 7.19
5. Nc1ccc(F)cc1-c1nnc(-c2cccc(S(N)(=O)=O)c2)o1 [8m]; 6.51
6. Nc1ccc(Cl)cc1-c1nnc(-c2ccc(S(N)(=O)=O)cc2)o1 [8e]; 6.65
7. Nc1ccccc1-c1nnc(-c2ccc(S(N)(=O)=O)cc2)o1 [8a]; 7.47
8. Cc1ccc(N)c(-c2nnc(-c3ccc(S(N)(=O)=O)cc3)o2)c1 [8b]; 7.29
9. Nc1ccc(F)cc1-c1nnc(-c2ccc(S(N)(=O)=O)cc2)o1 [8d]; 7.36
10. COc1ccc(N)c(-c2nnc(-c3ccc(S(N)(=O)=O)cc3)o2)c1 [8c]; 7.79
